system under test: C3aR I421^7.39A (Homo sapiens, UniProt Q16581, I421A)
Construct: expressed in transfected cells; host or cells: HEK293T
protocol: GloSensor-based cAMP assay, C3aR mutant I421A
Assay type: cell-based
particulars: pIC50 ± SEM (Mean), I421^7.39A; mean of independent experiments
measured property: pIC50
Here pIC50 is given on a logarithmic scale as minus log10 of the concentration in mol/L.

Return the recorded pIC50 value; entry: Cc1cc(C(c2ccc(Cl)cc2)c2ccc(Cl)cc2)sc1C(=O)N[C@@H](CCCNC(=N)N)C(=O)O [JR14a, reference compound]
6.66

* * *

system under test: C3aR P99^3.29A (Homo sapiens, UniProt Q16581, P99A)
Construct: expressed in transfected cells; host or cells: HEK293T
protocol: GloSensor-based cAMP assay, C3aR mutant P99A
Type: cell-based
particulars: IC50, P99^3.29A; dose-response plot
measured property: IC50 (nM)
Kindly answer with a numeric value in nM, unit omitted.

Return the recorded IC50 value; entry: Cc1cc(C(c2ccc(Cl)cc2)c2ccc(Cl)cc2)sc1C(=O)N[C@@H](CCCNC(=N)N)C(=O)O [JR14a, reference compound]
4.08

* * *

system under test: C3aR D417^7.35A (Homo sapiens, UniProt Q16581, D417A)
Construct: expressed in transfected cells; host or cells: HEK293T
protocol: GloSensor-based cAMP assay, C3aR mutant D417A
Type: cell-based
particulars: IC50, D417^7.35A; dose-response plot; Not calculated = entire loss of signaling
measured property: pIC50
Here pIC50 is given on a logarithmic scale as minus log10 of the concentration in mol/L.

Return the recorded pIC50 value; entry: Cc1cc(C(c2ccc(Cl)cc2)c2ccc(Cl)cc2)sc1C(=O)N[C@@H](CCCNC(=N)N)C(=O)O [JR14a, reference compound]
6.37

* * *

system under test: C3aR I98^3.28A (Homo sapiens, UniProt Q16581, I98A)
Construct: expressed in transfected cells; host or cells: HEK293T
protocol: GloSensor-based cAMP assay, C3aR mutant I98A
Assay type: cell-based
particulars: pIC50 ± SEM (Mean), I98^3.28A; mean of independent experiments
measured property: IC50 (nM)
Kindly answer with a numeric value in nM, unit omitted.

Return the recorded IC50 value; entry: Cc1cc(C(c2ccc(Cl)cc2)c2ccc(Cl)cc2)sc1C(=O)N[C@@H](CCCNC(=N)N)C(=O)O [JR14a, reference compound]
8.91

* * *

system under test: C3aR R340^5.42A (Homo sapiens, UniProt Q16581, R340A)
Construct: expressed in transfected cells; host or cells: HEK293T
protocol: GloSensor-based cAMP assay, C3aR mutant R340A
Type: cell-based
particulars: IC50, R340^5.42A; dose-response plot
measured property: pIC50
Here pIC50 is given on a logarithmic scale as minus log10 of the concentration in mol/L.

Return the recorded pIC50 value; entry: Cc1cc(C(c2ccc(Cl)cc2)c2ccc(Cl)cc2)sc1C(=O)N[C@@H](CCCNC(=N)N)C(=O)O [JR14a, reference compound]
6.32

* * *

system under test: C3aR L82^2.64A (Homo sapiens, UniProt Q16581, L82A)
Construct: expressed in transfected cells; host or cells: HEK293T
protocol: GloSensor-based cAMP assay, C3aR mutant L82A
Format: cell-based
particulars: IC50, L82^2.64A; dose-response plot
Method: HEK293T cells were seeded on 6-well plates (NEST) and transfected with pGlosensor™-22F plasmids (Promega) and pcDNA3.1 plasmids encoding C3aR or its mutants an with N-terminal FLAG tag. […] After 90 min of incubation, basal luminescence signals were recorded. In total, 25 μl of test ligand with various concentrations and 1 μM Forskolin (Sigma-Aldrich) were treated to the cells and luminescence signals were measured by Tristar 2 LB 942 multimode reader (Berthold). […]
measured property: IC50 (nM)
Kindly answer with a numeric value in nM, unit omitted.

For C3aR L82^2.64A (Homo sapiens, UniProt Q16581, L82A), give the measured IC50 of the entry Cc1cc(C(c2ccc(Cl)cc2)c2ccc(Cl)cc2)sc1C(=O)N[C@@H](CCCNC(=N)N)C(=O)O [JR14a, reference compound]
2.07

* * *

system under test: C3aR Y174^ECL2A (Homo sapiens, UniProt Q16581, Y174A)
Construct: expressed in transfected cells; host or cells: HEK293T
Sequence (Q16581 1-482 Y174A): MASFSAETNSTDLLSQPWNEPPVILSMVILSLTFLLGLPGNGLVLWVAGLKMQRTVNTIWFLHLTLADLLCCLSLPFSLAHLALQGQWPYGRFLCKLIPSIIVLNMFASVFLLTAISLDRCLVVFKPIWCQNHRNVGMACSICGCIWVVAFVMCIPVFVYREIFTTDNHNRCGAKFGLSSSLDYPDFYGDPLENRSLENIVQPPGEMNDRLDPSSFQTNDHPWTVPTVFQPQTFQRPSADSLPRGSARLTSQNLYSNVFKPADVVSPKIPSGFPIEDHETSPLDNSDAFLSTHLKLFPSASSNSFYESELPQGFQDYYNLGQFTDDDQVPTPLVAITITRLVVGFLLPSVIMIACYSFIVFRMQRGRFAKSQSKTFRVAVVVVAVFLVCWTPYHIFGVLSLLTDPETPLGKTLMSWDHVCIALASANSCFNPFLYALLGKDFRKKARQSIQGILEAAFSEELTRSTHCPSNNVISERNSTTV
protocol: GloSensor-based cAMP assay, C3aR mutant Y174A
Assay type: cell-based
particulars: IC50, Y174^ECL2A; dose-response plot
Method: HEK293T cells were seeded on 6-well plates (NEST) and transfected with pGlosensor™-22F plasmids (Promega) and pcDNA3.1 plasmids encoding C3aR or its mutants an with N-terminal FLAG tag. […] After 90 min of incubation, basal luminescence signals were recorded. In total, 25 μl of test ligand with various concentrations and 1 μM Forskolin (Sigma-Aldrich) were treated to the cells and luminescence signals were measured by Tristar 2 LB 942 multimode reader (Berthold). […]
measured property: IC50 (nM)
Kindly answer with a numeric value in nM, unit omitted.

Return the recorded IC50 value; entry: Cc1cc(C(c2ccc(Cl)cc2)c2ccc(Cl)cc2)sc1C(=O)N[C@@H](CCCNC(=N)N)C(=O)O [JR14a, reference compound]
1.61

* * *

system under test: C3aR D417^7.35A (Homo sapiens, UniProt Q16581, D417A)
Construct: expressed in transfected cells; host or cells: HEK293T
protocol: GloSensor-based cAMP assay, C3aR mutant D417A
Type: cell-based
particulars: pIC50 ± SEM (Mean), D417^7.35A; mean of independent experiments; Not calculated = entire loss of signaling
Protocol: HEK293T cells were seeded on 6-well plates (NEST) and transfected with pGlosensor™-22F plasmids (Promega) and pcDNA3.1 plasmids encoding C3aR or its mutants an with N-terminal FLAG tag. […] After 90 min of incubation, basal luminescence signals were recorded. In total, 25 μl of test ligand with various concentrations and 1 μM Forskolin (Sigma-Aldrich) were treated to the cells and luminescence signals were measured by Tristar 2 LB 942 multimode reader (Berthold). […]
measured property: pIC50
Here pIC50 is given on a logarithmic scale as minus log10 of the concentration in mol/L.

Return the recorded pIC50 value; entry: Cc1cc(C(c2ccc(Cl)cc2)c2ccc(Cl)cc2)sc1C(=O)N[C@@H](CCCNC(=N)N)C(=O)O [JR14a, reference compound]
6.38

* * *

system under test: C3aR Y174^ECL2A (Homo sapiens, UniProt Q16581, Y174A)
Construct: expressed in transfected cells; host or cells: HEK293T
protocol: GloSensor-based cAMP assay, C3aR mutant Y174A
Format: cell-based
particulars: pIC50 ± SEM (Mean), Y174^ECL2A; mean of independent experiments
measured property: IC50 (nM)
Kindly answer with a numeric value in nM, unit omitted.

Return the recorded IC50 value; entry: Cc1cc(C(c2ccc(Cl)cc2)c2ccc(Cl)cc2)sc1C(=O)N[C@@H](CCCNC(=N)N)C(=O)O [JR14a, reference compound]
1.7

* * *

system under test: C3aR I421^7.39A (Homo sapiens, UniProt Q16581, I421A)
Construct: expressed in transfected cells; host or cells: HEK293T
protocol: GloSensor-based cAMP assay, C3aR mutant I421A
Assay type: cell-based
particulars: IC50, I421^7.39A; dose-response plot
measured property: IC50

Return the recorded IC50 value; entry: Cc1cc(C(c2ccc(Cl)cc2)c2ccc(Cl)cc2)sc1C(=O)N[C@@H](CCCNC(=N)N)C(=O)O [JR14a, reference compound]
204 nM

* * *

system under test: C3aR R340^5.42A (Homo sapiens, UniProt Q16581, R340A)
Construct: expressed in transfected cells; host or cells: HEK293T
protocol: GloSensor-based cAMP assay, C3aR mutant R340A
Type: cell-based
particulars: pIC50 ± SEM (Mean), R340^5.42A; mean of independent experiments
measured property: pIC50
Here pIC50 is given on a logarithmic scale as minus log10 of the concentration in mol/L.

Return the recorded pIC50 value; entry: Cc1cc(C(c2ccc(Cl)cc2)c2ccc(Cl)cc2)sc1C(=O)N[C@@H](CCCNC(=N)N)C(=O)O [JR14a, reference compound]
6.27
